Assay: Rat pharmacokinetic (PK) assay and measurement of plasma concentrations
Assay type: in vivo
Settings: male rat, 0.3 mg/kg, DMSO solution, T1/2=0.693/Kel
Below, each entry is listed with its recorded half-life.
Dear colleague, please return just the value in h, with no unit written.

>>> reported_result("CC(C)C1=CN(C23CC(C(=O)O)(C2)C3)C(=O)N[C@@]1(C)c1ccc([C@@H]2C[C@H]2C(C)(C)C)c(Cl)c1")
10.5

Would you kindly look at the next entry?
Q. Bench note: what half-life did CC[C@H](C)C1=CN(C23CC(C(=O)O)(C2)C3)C(=O)N[C@@]1(C)c1ccc([C@@H]2C[C@H]2C(C)(C)C)c(Cl)c1 show?
A. 13.2

---

compounds and their reported solubility at 4 h
Experiment: Measurement of solubility (JP1, JP2, FaSSIF, FeSSIF)
Assay type: physicochemical
Conditions: pH 1.2, simulated gastric fluid, thermodynamic from solid; JP1, room temperature, shaken 4 hours; read-out: Solubility JP1

>>> reported_result("CC(C)C1=CN(C23CC(C(=O)O)(C2)C3)C(=O)N[C@@]1(C)c1ccc([C@@H]2C[C@H]2C(C)(C)C)c(Cl)c1")
"< 0.8 µM"

--- query ---
Q. For the compound CC[C@H](C)C1=CN(C23CC(C(=O)O)(C2)C3)C(=O)N[C@@]1(C)c1ccc([C@@H]2C[C@H]2C(C)(C)C)c(Cl)c1 , what solubility at 4 h is on record?
A. < 0.7 µM
